System: ME-1 (Acute Myeloid Leukemia)
Method Summary: combination Emax (second highest fraction inhibited in the dose matrix, 72 h); higher = more inhibition; extreme values may be limits of the assay

- Compound: "CCc1c2c(nc3ccc(O)cc13)-c1cc3c(c(=O)n1C2)COC(=O)[C@]3(O)CC [SN-38] + O=C(c1cc(Cc2n[nH]c(=O)c3ccccc23)ccc1F)N1CCN(C(=O)C2CC2)CC1 [Olaparib] (first compound max 0.3 µM, 7x7, partner max 10 µM)"
  combination Emax: 0.497
- Compound: "COc1nnc2ccc(N3CCC(c4ccc(OCCN5CCN(C)C(=O)[C@H]5C)cc4)CC3)nn12 [AZD5153] + Cc1c2c(nn1C)CSCc1cc(n(C)n1)CSc1cc(c3ccccc3c1)OCCCc1c(C(=O)O)n(C)c3c-2c(Cl)ccc13 [AZD5991] (first compound max 1 µM, 7x7, partner max 1 µM)"
  combination Emax: 0.793
- Compound: "O=C(c1cc(Cc2n[nH]c(=O)c3ccccc23)ccc1F)N1CCN(C(=O)C2CC2)CC1 [Olaparib] + CC1(C)CCC(CN2CCN(c3ccc(C(=O)NS(=O)(=O)c4ccc(NCC5CCOCC5)c([N+](=O)[O-])c4)c(Oc4cnc5[nH]ccc5c4)c3)CC2)=C(c2ccc(Cl)cc2)C1 [Venetoclax] (first compound max 10 µM, 7x7, partner max 1 µM)"
  combination Emax: 1
- Compound: "C=CCn1c(=O)c2cnc(Nc3ccc(N4CCN(C)CC4)cc3)nc2n1-c1cccc(C(C)(C)O)n1 [AZD1775] + C[C@@H]1COCCN1C2=NC(=NC(=C2)C3(CC3)[S@](=N)(=O)C)C4=C5C=CNC5=NC=C4 [AZD6738] (first compound max 1 µM, partner max 10 µM)"
  combination Emax: 0.51
- Compound: "Cc1c2c(nn1C)CSCc1cc(n(C)n1)CSc1cc(c3ccccc3c1)OCCCc1c(C(=O)O)n(C)c3c-2c(Cl)ccc13 [AZD5991] + CS(=O)(=O)CCNCc1ccc(-c2ccc3ncnc(Nc4ccc(OCc5cccc(F)c5)c(Cl)c4)c3c2)o1 [Lapatinib] (first compound max 1 µM, 7x7, partner max 10 µM)"
  combination Emax: 0.646
- Compound: "CN(CCO)CC[C@H](CSc1ccccc1)Nc1ccc(S(=O)(=O)NC(=O)c2ccc(N3CCC([C@@H](O)c4ccccc4-c4ccc(Cl)cc4)CC3)cc2)cc1S(=O)(=O)C(F)(F)F [AZD4320] + Cn1cnc2c(F)c(Nc3ccc(Br)cc3Cl)c(C(=O)NOCCO)cc21 [Selumetinib] (first compound max 1 µM, 7x7, partner max 3 µM)"
  combination Emax: 1
- Compound: "CN(CCO)CC[C@H](CSc1ccccc1)Nc1ccc(S(=O)(=O)NC(=O)c2ccc(N3CCC([C@@H](O)c4ccccc4-c4ccc(Cl)cc4)CC3)cc2)cc1S(=O)(=O)C(F)(F)F [AZD4320] + CCN(CCO)CCCOc1ccc2c(Nc3cc(CC(=O)Nc4cccc(F)c4)[nH]n3)ncnc2c1 [AZD2811] (first compound max 1 µM, 7x7, partner max 1 µM)"
  combination Emax: 1
- Compound: "N#Cc1cnc(Nc2cc(NC[C@H]3CNCCO3)c(C(F)(F)F)cn2)cn1 [SRA737] + C=CCn1c(=O)c2cnc(Nc3ccc(N4CCN(C)CC4)cc3)nc2n1-c1cccc(C(C)(C)O)n1 [AZD1775] (first compound max 10 µM, partner max 1 µM)"
  combination Emax: 0.566
- Compound: "CC1(C)CCC(CN2CCN(c3ccc(C(=O)NS(=O)(=O)c4ccc(NCC5CCOCC5)c([N+](=O)[O-])c4)c(Oc4cnc5[nH]ccc5c4)c3)CC2)=C(c2ccc(Cl)cc2)C1 [Venetoclax] + C1CN(CCC1(C(=O)N[C@@H](CCO)C2=CC=C(C=C2)Cl)N)C3=NC=NC4=C3C=CN4 [Capivasertib] (first compound max 1 µM, 7x7, partner max 3 µM)"
  combination Emax: 1
- Compound: "CC1(C)CCC(CN2CCN(c3ccc(C(=O)NS(=O)(=O)c4ccc(NCC5CCOCC5)c([N+](=O)[O-])c4)c(Oc4cnc5[nH]ccc5c4)c3)CC2)=C(c2ccc(Cl)cc2)C1 [Venetoclax] + C[C@@H]1COCCN1C2=NC(=NC(=C2)C3(CC3)[S@](=N)(=O)C)C4=C5C=CNC5=NC=C4 [AZD6738] (first compound max 1 µM, 7x7, partner max 10 µM)"
  combination Emax: 1
- Compound: "CC1(C)CCC(CN2CCN(c3ccc(C(=O)NS(=O)(=O)c4ccc(NCC5CCOCC5)c([N+](=O)[O-])c4)c(Oc4cnc5[nH]ccc5c4)c3)CC2)=C(c2ccc(Cl)cc2)C1 [Venetoclax] + CCN(CCO)CCCOc1ccc2c(Nc3cc(CC(=O)Nc4cccc(F)c4)[nH]n3)ncnc2c1 [AZD2811] (first compound max 1 µM, 7x7, partner max 1 µM)"
  combination Emax: 1
- Compound: "NC1(C(=O)N[C@@H](CCO)c2ccc(Cl)cc2)CCN(c2ncnc3[nH]ccc23)CC1 [Capivasertib] + CCN(CCO)CCCOc1ccc2c(Nc3cc(CC(=O)Nc4cccc(F)c4)[nH]n3)ncnc2c1 [AZD2811] (first compound max 10 µM, 7x7, partner max 1 µM)"
  combination Emax: 0.199
